Reported TIht (CEM cells) values are given for each entry in this list.
# System: CEM cells
# protocol text: Cytotoxicity, CEM human T-lymphocytes
# condition summary: IC50 T-lymphocytes (CEM)/IC50 human tumors
Give only the figure.

Guide cases for TIht (CEM cells), answers given:
CCN1CCC(O)(c2ccc(O)cc2)C(C(=O)c2ccc(O)cc2)C1 (centres unmarked) [Compound 11f] : 2.04
CCN1CCC(O)(/C=C/c2cccc(C)c2)C(C(=O)/C=C/c2cccc(C)c2)C1 (centres unmarked) [Compound 13a] : 3.75
CCN1CCC(O)(c2ccc(C)cc2)C(C(=O)c2ccc(C)cc2)C1 (centres unmarked) [Compound 11d] : 1.54
CCN(CC)CCC(=O)/C=C/c1ccc(Cl)c(Cl)c1 : 14.70

Kindly review the next compound as well.
Lookup: Please respond with reported TIht (CEM cells) (system CEM cells) for O=C(/C=C/c1ccccc1)CCN1CCN(CCC(=O)/C=C/c2ccccc2)CC1 .
Found: 0.46

This collection of values is drawn from patent US6017933A.
